Here, each record is paired with measured pEC50 data.
Tested on: NS3/4a protease inhibitor resistant variant R155K in genotype 1a transient HCV replicon
RUN_DESCRIPTION: Transient-transfected HCV replicon, genotype 1a R155K
Type: cell-based
CONDITION_LABEL: Hepatitis C virus, 72 h, read-out: EC50 1A R155K
pEC50: −log10 of the molar value.
MEASUREMENT_LABEL: pEC50

SMILES_REPR	QUANTITATIVE_RESULT
CC(C)(C)[C@@H]1NC(=O)O[C@@H]2C[C@@H]3C[C@@H]3[C@H]2CCCCC(F)(F)c2nc3ccc(C#N)cc3nc2O[C@@H]2C[C@@H](C(=O)N[C@]3(C(=O)NS(=O)(=O)C4(C)CC4)C[C@H]3C(F)F)N(C2)C1=O	9.16
COc1ccc2nc3c(nc2c1)O[C@@H]1C[C@@H](C(=O)N[C@]2(C(=O)NS(=O)(=O)C4CC4)C[C@H]2CC(F)F)N(C1)C(=O)[C@H](C(C)(C)C)NC(=O)O[C@@H]1C[C@@H]2C[C@@H]2[C@H]1CCCCC3	7.96
CC(C)(C)[C@@H]1NC(=O)O[C@@H]2C[C@@H]3C[C@@H]3[C@H]2CCCCC(F)(F)c2nc3ccccc3nc2O[C@@H]2C[C@@H](C(=O)N[C@]3(C(=O)NS(=O)(=O)C4(C)CC4)C[C@H]3C(F)F)N(C2)C1=O	8.54
COc1ccc2nc3c(nc2c1)O[C@@H]1C[C@@H](C(=O)N[C@]2(C(=O)NS(=O)(=O)C4(C)CC4)C[C@H]2CC(F)F)N(C1)C(=O)[C@H](C(C)(C)C)NC(=O)O[C@@H]1C[C@@H]2C[C@@H]2[C@H]1CCCCC3(F)F	8.30

----------
TARGET_OF_ASSAY: NS3 genotype 3a protease (UniProt Q81258)
Construct: Purified NS3 protease domain (amino acids 1-181) of the genotype 1b and 3a virus were generated as above; fused on or other part: N-terminal hexahistidine tag with an rTEV protease cleavage site (vector p28-N6H-Tev-NS3(181)3)
RUN_DESCRIPTION: Ki determination, NS3 protease genotype 3a (fluorogenic depsipeptide substrate)
CONDITION_LABEL: NS3 protease domain genotype 3a, NS4A peptide
pKi: −log10 of the molar value.
Here, each record is paired with measured pKi data.

SMILES_REPR	pKi
COc1ccc2nc3c(nc2c1)O[C@@H]1C[C@@H](C(=O)N[C@]2(C(=O)NS(=O)(=O)C4(C)CC4)C[C@H]2C(F)F)N(C1)C(=O)[C@H](C(C)(C)C)NC(=O)O[C@@H]1[C@H]2CC[C@H](C2)[C@H]1CCCCC3	9.57
CC(C)(C)[C@@H]1NC(=O)O[C@@H]2C[C@@H]3C[C@@H]3[C@H]2CCCCCc2nc3ccc(F)cc3nc2O[C@@H]2C[C@@H](C(=O)N[C@]3(C(=O)NS(=O)(=O)C4CC4)C[C@H]3C(F)F)N(C2)C1=O	10.05
COc1ccc2nc3c(nc2c1)O[C@@H]1C[C@@H](C(=O)N[C@]2(C(=O)NS(=O)(=O)C4(C)CC4)C[C@H]2C(F)F)N(C1)C(=O)[C@H](C(C)(C)C)NC(=O)O[C@@H]1C[C@@H]2C[C@@H]2[C@H]1CCCCC3	10.40

----------
Here, each record is paired with measured pEC50 data.
Test system: genotype 1a stable HCV replicon (H77) in Huh-7-derived cells
RUN_DESCRIPTION: Stable subgenomic HCV replicon, genotype 1a, Renilla luciferase
Format: cell-based
CONDITION_LABEL: Hepatitis C virus, stable replicon genotype 1a, 72 h, read-out: EC50 1A RLUC
pEC50: −log10 of the molar value.

COMPOUND	pEC50
COc1ccc2nc3c(nc2c1)O[C@@H]1C[C@@H](C(=O)N[C@]2(C(=O)NS(=O)(=O)C4(C)CC4)C[C@H]2C(F)F)N(C1)C(=O)[C@H](C(C)(C)C)NC(=O)O[C@@H]1C[C@@H]2C[C@@H]2[C@H]1CCCCC3(F)F [Example 10]	8.80
COc1ccc2cc3c(nc2c1)O[C@@H]1C[C@@H](C(=O)N[C@]2(C(=O)NS(=O)(=O)C4CC4)C[C@H]2C(F)F)N(C1)C(=O)[C@H](C(C)(C)C)NC(=O)O[C@@H]1C[C@@H]2C[C@@H]2[C@H]1CCCCC3 [Example 21]	8.80
CC(C)(C)[C@@H]1NC(=O)O[C@@H]2C[C@@H]3C[C@@H]3[C@H]2CCCCCc2nc3ccc(F)cc3nc2O[C@@H]2C[C@@H](C(=O)N[C@]3(C(=O)NS(=O)(=O)C4(C)CC4)C[C@H]3C(F)F)N(C2)C1=O [Example 11]	8.85
CC(C)(C)[C@@H]1NC(=O)O[C@@H]2C[C@@H]3C[C@@H]3[C@H]2CCCCCc2nc3ccc(Cl)cc3nc2O[C@@H]2C[C@@H](C(=O)N[C@]3(C(=O)NS(=O)(=O)C4CC4)C[C@H]3C(F)F)N(C2)C1=O [Example 19]	8.85
